Origin of measurements: ChEMBL document CHEMBL4602620

Target: UniProt:Q9Y5P4
Sequence (Q9Y5P4 whole entry, the tested form may be a part): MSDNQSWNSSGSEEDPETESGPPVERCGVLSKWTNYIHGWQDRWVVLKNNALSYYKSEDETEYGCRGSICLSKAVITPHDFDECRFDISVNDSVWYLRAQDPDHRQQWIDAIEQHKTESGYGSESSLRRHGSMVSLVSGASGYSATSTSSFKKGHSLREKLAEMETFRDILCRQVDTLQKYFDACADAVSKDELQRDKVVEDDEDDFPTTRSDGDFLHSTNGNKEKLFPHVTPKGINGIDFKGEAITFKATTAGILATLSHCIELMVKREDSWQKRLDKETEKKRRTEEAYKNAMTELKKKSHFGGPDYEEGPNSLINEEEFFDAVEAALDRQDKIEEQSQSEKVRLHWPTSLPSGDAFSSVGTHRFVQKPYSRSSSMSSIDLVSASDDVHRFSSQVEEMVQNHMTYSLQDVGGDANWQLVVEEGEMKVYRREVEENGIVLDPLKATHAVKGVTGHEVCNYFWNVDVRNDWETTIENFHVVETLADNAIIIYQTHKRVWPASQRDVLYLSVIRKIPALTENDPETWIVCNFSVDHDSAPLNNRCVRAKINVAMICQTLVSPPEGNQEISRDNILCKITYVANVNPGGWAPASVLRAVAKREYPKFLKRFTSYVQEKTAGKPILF
Assay: Displacement of fluorescent tagged ceramide from immobilized His-tagged CERT START domain (unknown origin) assessed as reduction in residual fluorescence activity by FLINT assay relative to control
Set-up: concentration or dose not given beside the values
Settings: concentration not given here
Kindly state inhibition for each of the entries shown.
State the answer as a number, implicitly in %.

Data request: State inhibition (UniProt:Q9Y5P4) of CCCCCCCCCCCCO[C@H]1CN(CCCCCCCCCCCC)C[C@@H](O)[C@@H]1O .
Data returned: 25

Data request: State inhibition (UniProt:Q9Y5P4) of CCCCCCCCCCCCC/C=C/[C@@H](O)[C@H](CO)NC(=O)CCCCCCCCCCCCCCC .
Data returned: 25

Data request: State inhibition (UniProt:Q9Y5P4) of CCCCCCCCCCCCN1C[C@H](O)[C@@H](O)[C@H](O)[C@H]1CO .
Data returned: 25

Data request: State inhibition (UniProt:Q9Y5P4) of CCCCCCCCCCCCO[C@H]1[C@H](O)[C@@H](O)CN(CCCCCCCCCCCC)[C@@H]1CO .
Data returned: 20

Data request: State inhibition (UniProt:Q9Y5P4) of CCCCCCCCCCCC(=O)N[C@@H](CO)C[C@H](O)c1ccccc1 .
Data returned: 25

Data request: State inhibition (UniProt:Q9Y5P4) of CCCCCCCCCCCCO[C@H]1CN(CCCCCCCCCCCC)[C@H](CO)[C@@H](O)[C@@H]1O .
Data returned: 40
